- TESTED SYSTEM: HCV polymerase (NS5B) type 1a (Hepatitis C virus genotype 1a)
- Construct: made in house; host or cells: Escherichia coli (by the 'similar method' of the 1b enzyme)
- ASSAY REMARKS: Assay of enzyme (HCV polymerase) inhibitory activity, type 1a enzyme
- Assay type: biochemical, HCV type 1a (cloned from the blood of patients)
- MEASUREMENT CONDITIONS: HCV polymerase inhibitory activity IC50, 1a, type 1a enzyme
REPORTED PROPERTY: IC50

- CHEMICAL SMILES: "Cc1ncc2sc(N3CCN(S(=O)(=O)c4ccc(OC(F)(F)F)cc4)[C@@H](C(=O)NCc4ccc(OC(F)F)cc4)C3)nc2n1"
  IC50: "< 100 nM"
- CHEMICAL SMILES: "CCCc1ccc(CNC(=O)[C@H]2CN(c3nc4c(C(=O)O)nncc4s3)CCN2S(=O)(=O)c2ccc(CC)cc2)cc1"
  IC50: "< 100 nM"
- CHEMICAL SMILES: "CCn1ncc2sc(N3CCN(S(=O)(=O)c4ccc(C(F)(F)F)cc4)[C@@H](C(=O)NCc4ccc(OC(F)(F)F)cc4)C3)nc2c1=O"
  IC50: "< 100 nM"
- CHEMICAL SMILES: "CCCc1ccc(CNC(=O)[C@H]2CN(c3cnc4cncnc4n3)CCN2S(=O)(=O)c2ccc(OC(F)(F)F)cc2)cc1O"
  IC50: "100 to 1000 nM"
- CHEMICAL SMILES: "CCC(F)(F)c1ccc(CNC(=O)[C@H]2CN(c3cnc4cncnc4n3)CCN2S(=O)(=O)c2ccc(I)cc2)cc1"
  IC50: "< 100 nM"
- CHEMICAL SMILES: "CC(=O)N1CCN(S(=O)(=O)c2ccc(OC(F)(F)F)cc2)[C@@H](C(=O)NCc2cnc(C)cn2)C1"
  IC50: "> 1000 nM"
- CHEMICAL SMILES: "CCC(F)(F)c1ccc(CNC(=O)[C@H]2CN(c3nc4nc(Cl)ncc4s3)CCN2S(=O)(=O)c2ccc(OC(F)(F)F)cc2)cc1"
  IC50: "< 100 nM"
- CHEMICAL SMILES: "CCC(F)(F)c1ccc(CNC(=O)[C@H]2CN(C(=O)N3CC(C(=O)O)C3)CCN2S(=O)(=O)c2ccc(OC(F)(F)F)cc2)cc1"
  IC50: "> 1000 nM"

Exercise: Item under review: COc1nncc2nc(N3CCN(S(=O)(=O)c4ccc(OC(F)(F)F)cc4)[C@@H](C(=O)NCc4ccc(OC(F)(F)F)cc4)C3)sc12 . Reported IC50?
Key: < 100 nM

Exercise: # query: IC50 of entry CCN(C)c1ccc(CNC(=O)[C@H]2CN(c3nc4cn[nH]c(=O)c4s3)CCN2S(=O)(=O)c2ccc(OC(F)(F)F)cc2)cc1
Key: < 100 nM

Exercise: Given the entry COCc1ncc2sc(N3CCN(S(=O)(=O)c4ccc(OC(F)(F)F)cc4)[C@@H](C(=O)NCc4ccc(OC(F)(F)F)cc4)C3)nc2n1 , report its measured IC50.
Key: < 100 nM

Exercise: Which value of IC50 has been reported for CCC(F)(F)c1ccc(CNC(=O)[C@H]2CN(c3cnc4cncnc4n3)CCN2S(=O)(=O)c2ccc(-c3ccccc3)cc2)cc1 in the records?
Key: < 100 nM

Exercise: Dear colleague, I am looking for the recorded IC50 of the following compound: O=C(NCCCc1ccccc1)[C@H]1CN(c2cnc3cncnc3n2)CCN1S(=O)(=O)c1ccc(OC(F)(F)F)cc1
Key: 100 to 1000 nM
